molecular target: Prostaglandin D2 receptor 2 (Homo sapiens, UniProt Q9Y5Y4); assay: Radioligand Binding Assay: The CRTH2 receptor binding assay is performed in a scintillation proximity assay (SPA) format with the radioligand [3H]-PGD2 (Perkin Elmer, NET616000MC). CHO-K1-hCRTH2 cell membranes are again homogenized by passing through a single use needle (Terumo, 23Gx1'') and diluted in SPA incubation buffer in suitable concentrations (0.5-10 ug protein/well). The SPA assay is set up in 96 well microtiter plates (Perkin Elmer, CatNo. 6005040) in SPA incubation buffer with a final volume of 200 ul per well and final concentration of 50 mM Tris-HCl, 10 mM MgCl2, 150 mM NaCl, 1 mM EDTA pH 7.4, 0.1% bovine serum albumin). The SPA assay mixture contains 60 ul of the membrane suspension, 80 ul of Wheat Germ Agglutinin coated PVT beads (GE Healthcare, RPNQ-0001, 0.3 mg/well), 40 ul of [3H]-PGD2 diluted in SPA buffer to a final concentration of 1 nM (50 000 dpm) and 20 ul of the test compound (dissolved in dimethylsulfoxid).
Sequence (Q9Y5Y4 whole entry): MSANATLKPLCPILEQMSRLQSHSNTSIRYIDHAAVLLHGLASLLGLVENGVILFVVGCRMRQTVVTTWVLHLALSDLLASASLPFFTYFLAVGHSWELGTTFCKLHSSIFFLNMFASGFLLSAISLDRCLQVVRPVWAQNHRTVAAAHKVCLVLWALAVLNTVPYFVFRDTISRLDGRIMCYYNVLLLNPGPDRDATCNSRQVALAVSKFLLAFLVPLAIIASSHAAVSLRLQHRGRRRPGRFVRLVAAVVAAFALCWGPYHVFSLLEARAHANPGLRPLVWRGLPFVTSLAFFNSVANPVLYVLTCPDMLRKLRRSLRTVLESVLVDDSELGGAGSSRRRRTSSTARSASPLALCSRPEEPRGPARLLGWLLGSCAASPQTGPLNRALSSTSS
pKi: −log10 of the molar value.
Measured Attribute: pKi

- CCc1nn(Cc2ccc(NC(=O)C3CCC(C(F)(F)F)CC3)cc2)c(CC)c1CC(=O)O (stereo unspecified): 7.62
